Assay: PSAC antagonists in infected red cells, primary screen, cell-based, P. falciparum Indochina, OD700, 2 h (AID 1155);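 also: lysis reports solute entry through the parasite surface anion channel PSAC; channel blockers reduce lysis of infected cells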
Details: P. falciparum Indochina infected erythrocytes, osmotic lysis OD700; higher = more signal, called active from +8 up or from −8 down
measured_quantity: z-score

1. C[C@@H](c1ccccc1)N1C(=O)[C@H]2[C@H]3[C@H](O)[C@H](O)CC(=O)[C@@H]3CC[C@H]2C1=O    -1.39
2. C=C(C)C(=O)OC[C@@H]1CN2[C@@H](CC[C@@H](C)[C@@H]2c2ccc(Br)cc2)C(=O)O1    0.0995
3. C#CCCCON=C1C[C@@H](O)[C@@H](O)[C@@H]2[C@@H]3C(=O)N(C4CCCCC4)C(=O)[C@@H]3CC[C@H]12    -0.68
4. CC(C)CCN1CCc2nc(-c3ccccc3)c3c(c2C1)CO[C@@H](C)C3    0.145
5. CCCNC(=O)OC[C@H]1O[C@H](CCON=C(C)CCN2CCc3nc(-c4ccccc4)c(-c4ccccc4)cc3C2)C=C[C@@H]1Oc1ccc(OC)cc1    0.454
6. CO[C@@H]1C=CCC(=O)N2CCC[C@H]2C(=O)OC[C@H](C)C(=O)OC[C@H]1C    -0.25
7. CO[C@@H]1COC(=O)CC=C[C@H](C)COC(=O)[C@H](C)NC(=O)CC=C[C@H]1C    0.193
8. Cc1ccc(S(=O)(=O)N[C@H]2COC(=O)[C@@H](C)COC(=O)[C@H](C)NC(=O)CC=C[C@H]2C)cc1    0.286
9. CCN1C(=O)[C@H]2[C@H]3[C@H](O)[C@H](O)CC(=NNC(=O)OCc4ccc(OC)cc4)[C@H]3CC[C@H]2C1=O    -0.464
10. Cc1cc2c(nc1C)CCCN2CC(C)ON=C[C@@H](C)[C@H](OCc1ccccc1)C(C)C (some centres undefined)    -0.0677
11. CCCNC(=O)OC[C@H]1O[C@H](CCON=C(C)CCC(=O)OC[C@H]2O[C@H](C#Cc3ccccc3)C=C[C@@H]2Oc2ccc(C)cc2)C=C[C@@H]1Oc1ccc(OC)cc1    0.329
12. CC(C)=NO[C@@H](C)c1cc(-c2c(C)cc(C)cc2C)no1    0.371
13. CC(C)=CCCC(C)=CCON=C1C[C@@H](O)[C@@H](O)[C@@H]2[C@@H]3C(=O)N([C@@H](C)c4ccccc4)C(=O)[C@@H]3CC[C@H]12    0.362
14. CCN1C(=O)[C@H]2[C@H]3[C@H](O)[C@H](O)CC(=NOC)[C@@H]3CC[C@H]2C1=O    0.628

Numbers sourced from PubChem BioAssay.
